Attribution: PubChem BioAssay

# assay-procedure: S. pombe growth modifiers, basal conditions – strain 972, OD600, 24 h, no modulator, primary screen (AID 1090);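 note: basal condition with compound alone and no growth modifier present; test concentration not given here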
# experimental-setup: S. pombe 972 growth, higher = more signal, called active from +8 up or from −8 down
property-name: z-score
# print the numeric value only

Some entries whose results are on file:
compound	property-name	observed-result
COC(=O)C(CC#Cc1ccc2c(c1)[C@]1(C(=O)N2)[C@H](C(=O)N2CCCCCCC2)[C@H]2C(=O)O[C@H](c3ccccc3)[C@H](c3ccccc3)N2[C@@H]1c1ccccc1OCCO)C(=O)OC	z-score	-0.97
CS(=O)(=O)CCOC(=O)C1=CC(c2ccc(CO)cc2)=CC(c2cccs2)N(Cc2cccc(OC(F)(F)F)c2)C=C1C(=O)OCCS(C)(=O)=O (stereo not drawn)	z-score	-3.38

Could you share which z-score value was measured for C=CCC(OC(C)=O)[C@@H]1[C@@H](N(Cc2cc3ccccc3o2)C(=O)c2cccc3ccccc23)c2cc(OCCCO)ccc2N1C(=O)Cc1ccc(OC)cc1 (stereo partly drawn) ?
-0.28

###

# tested-target: Concanavalin-A (Canavalia ensiformis)
# assay-procedure: compounds binding concanavalin A lectin – biochemical, small-molecule microarray, Alexa647 label, 635 nm, artefact control for SMM control protein annotation, primary screen (AID 1127);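 note: z combines 667 nm emission intensity with signal-to-noise across three replicate slides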
# experimental-setup: ConA-A647 binding fluorescence, higher = more signal
Entries are sorted into classes by composite z-score as follows: interval 1 (below 0.1), interval 2 (0.1 to below 1), interval 3 (1 or more)

Consider the worked cases shown below.
compound	qualitative-label
O=C(NCc1ccccc1)[C@@H]1c2ccccc2C(=O)N(C2CCCCC2)[C@H]1c1ccc(CO)cc1	interval 2
CC(C)C(O)C1C=CC2C(=O)N(C)C(=O)C2N1N1CCCCC1 (stereo unspecified)	interval 2
O=C1C2C=CC(C(O)c3ccc(-c4ccccc4)s3)N(Nc3ccccc3F)C2C(=O)N1c1ccccc1 (stereo unspecified)	interval 3

Which composite z-score band matches COC(=O)[C@@]1(Cc2ccc(OC)cc2)[C@H]2c3cc(C(=O)N4CCCC4)n(CCc4ccccn4)c3C[C@H]2CN1C(=O)c1ccccc1 ?
interval 2

Which composite z-score band matches CCCNC(=O)[C@@]1(C)c2ccccc2C(=O)N(C(C)C)[C@H]1c1ccc(CO)cc1 ?
interval 1

Which composite z-score band matches O=C1OCC=C[C@H]2OC34C=CCN(c5ccc6ccccc6c5)C(=O)[C@H]3N(CCO)C(=O)[C@@H]4[C@@H]12 (stereo partly specified) ?
interval 1

Which composite z-score band matches Cc1ccc(S(=O)(=O)N2CC(C(=O)O)=CCC2c2ccccc2)cc1 (stereo unspecified) ?
interval 1

Which composite z-score band matches O=C1O[C@@H](c2ccccc2)[C@@H](c2ccccc2)N2[C@@H](c3ccc(O)cc3)[C@]3(C(=O)Nc4ccc(C#CCCO)cc43)[C@@H](C(=O)O)[C@H]12 ?
interval 3

###

# Test system: glycogen synthase kinase-3 (GSK3A per assay name; protocol says GSK3B)
# assay-procedure: compounds binding glycogen synthase kinase-3 – biochemical, small-molecule microarray, 635 nm fluorescence, GSK3A, primary screen (AID 1103); note: the record names both GSK3A and GSK3B
# experimental-setup: fluorescence 635 nm, higher = more signal
// label = satisfied if composite z-score is not less than -0.1, otherwise not satisfied

Consider the worked cases shown below.
compound	qualitative-label
CC1CC/C=C\[C@H]2OC34C=CCN(c5ccc6ccccc6c5)C(=O)[C@H]3N(CCCCCO)C(=O)[C@@H]4C2C(=O)O1 (some centres not stated)	not satisfied
CCN(CC)c1ccc(N2CC=CC34O[C@@H]5/C=C\CCC(C)OC(=O)C5[C@H]3C(=O)N(CCCCCCO)[C@@H]4C2=O)cc1 (some centres not stated)	not satisfied
Cc1ccc(S(=O)(=O)N2CC(C(=O)O)=CCC2c2ccccc2)cc1 (configuration not stated)	not satisfied
O=C1O[C@@H](c2ccccc2)[C@@H](c2ccccc2)N2[C@@H](c3ccc(O)cc3)[C@]3(C(=O)Nc4ccccc43)[C@@H](C(=O)N3CCCCCCC3)[C@H]12	satisfied
COc1ccc([Si](C)(C)[C@@H]2[C@@H](CCO)O[C@]3(C(=O)N(Cc4ccccc4)c4ccc(N(C=O)c5ccccc5)cc43)[C@H]2C)cc1	not satisfied

Identify whether the reported composite z-score of the following compound is -0.1 or greater: COc1ccccc1CN1C(=O)c2ccccc2[C@](Cc2ccccc2I)(C(=O)NC2CC2)[C@@H]1c1ccc(CO)cc1
satisfied

Identify whether the reported composite z-score of the following compound is -0.1 or greater: O=C(NCC(O)CO)[C@]1(CCS(=O)(=O)c2ccccc2)N=C(c2ccc(OCCCO)cc2)O[C@@H]1c1ccccc1 (some centres not stated)
satisfied
